Reference for the values: patent US20250313612A1

- TESTED_TARGET: RSV F protein of recombinant mKate-RSV, subtype A (strain A2) (Respiratory syncytial virus subtype A …, UniProt P03420 26-574)
- TEST_SUMMARY: cell-based or functional assay
Entries and their measured Neut IC50 subtype A follow.
Enter your answer as a number in µg/mL; do not include the unit.

Solved entries (count: 2):
BINDER	UNIT_OF_MEASURE	VALUE_OBSERVED
ADI-14513 (antibody, V domains shown, full-length IgG (yeast-expressed); also called Antibody Number 74; Ab# 74) VH: QVQLVQSGSEVKRPGSSVKVSCKASGVALTTVAVNWVRQVPGQGPEWIGGILIGFGKVRQAQKFENRVTFTADASRNTAYMELSGLRSEDTAVYYCAIIDPQDCTRASCFWVNWLAPWGHGTLVTVSS VL: DIRVTQSPGTLTLSPGERASLSCRASESILNGNLAWYQQKPGQAPRLLIYAASSRATDIPDRFSGSGSGTDFTLTISRLEPQDFAVYYCQQYGSAPITFGQGTRLEIK	µg/mL	4.81
ADI-14492 (antibody, V domains shown, full-length IgG (yeast-expressed); also called Antibody Number 53; Ab# 53) VH: EVQLVESGGGLVRPGGSLGLSCSASGFIFSNAWMTWVRQAPGKGLEWVGHIKSKVNGGTTAYGAPVKGRFTISRDDSRNTLFLQMNSLKTEDTGVYYCTTGPPYQYFDDSGYSVVDYWGQGTLVTVSS VL: QSVVTQPPSASGTPGQRVTISCSGSDSNIGTDYFYWYQQLPGSAPKLLIYGSNQRPSGVPDRFSGSQSGSAASLAISGLRSEDDADYYCAAWDDSLGGPVFGGGTKVTVL	µg/mL	0.204

Query :: Return value of Neut IC50 subtype A for input ADI-14454 (antibody, V domains shown, full-length IgG (yeast-expressed); also called Antibody Number 17; Ab# 17) VH: QVQLVQSGPTLVKPTQTLTLTCTFSGFSLSTRGVGVGWIRQPPGKALECLGFTYWDGDQFHSPSLKNRLTITKDTSKNQVVLRMTNMDPVDTATYFCVHSDLYDSGGYYLYYFDYWGQGTLVTVSS VL: DIQMTQSPSSLSASVGDRVTITCRASQTIASYLNWYQQRPGEAPKLLIYAASSLQSGVSSRFSGRGSGTDFTLTINILQPEDLATYFCQQAYSAPYTFGQGTKVEIK , no commentary.
Result :: 0.23
